- assay_notes: In vitro cytotoxicity with L-6 cells (resazurin)
- Type: cell-based
- test_context: rat; geometric mean of two independent determinations (lower; upper); read-out: Cytotoxicity against L6 Rat Skeletal Myoblasts IC50
Assign IC50 at 70 h to each entry below.
Answers are plain numbers, in µg/mL.

COc1cc([C@@H]2c3cc4c(cc3[C@H](O)[C@H]3COC(=O)[C@H]23)OCO4)cc(OC)c1OC ... 0.009

Let us examine a further case.
Quick note, IC50 at 70 h for `C[C@H]1[C@H](C)CC[C@]2(C)CC[C@]3(C)C(=CC[C@@H]4[C@@]5(C)CC[C@@H](O)[C@](C)(C(=O)O)[C@@H]5CC[C@]43C)[C@H]12` landed at 15

----------
Assign IC50 at 70 h to each entry below.
- assay_notes: In vitro cytotoxicity with L-6 cells (resazurin)
- Assay type: cell-based
- test_context: rat; geometric mean of two independent determinations; read-out: Cytotoxicity against L6 Rat Skeletal Myoblasts IC50
Answers are plain numbers, in µM.

COc1cc([C@@H]2c3cc4c(cc3[C@H](O)[C@H]3COC(=O)[C@H]23)OCO4)cc(OC)c1OC ... 0.02

Let us examine a further case.
Quick note, IC50 at 70 h for `C[C@H]1[C@H](C)CC[C@]2(C)CC[C@]3(C)C(=CC[C@@H]4[C@@]5(C)CC[C@@H](O)[C@](C)(C(=O)O)[C@@H]5CC[C@]43C)[C@H]12` landed at 33
